B1: Nuclear receptor subfamily 4 group A member 2, residues 260 to 336; numbered along this chain, P43354 (parent)
chain: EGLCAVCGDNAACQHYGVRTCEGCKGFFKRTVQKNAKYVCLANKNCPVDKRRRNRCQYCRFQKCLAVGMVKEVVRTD

Variants of: B1
Test Details: abundance fitness (aPCA) (normalised: wild type 0, dead -1); higher = more abundant; growth selection in yeast, the domain comes from the species named
Protocol Conditions: Homo sapiens
Each entry gets F if its abundance fitness stays under -0.2, and T if its abundance fitness is -0.2 or above.

Known results for variants:
>  <Mutation Annotation>
G26E

>  <Group Label>
F

$$$$
>  <Mutation Annotation>
E72D

>  <Group Label>
T

$$$$
>  <Mutation Annotation>
R75Q

>  <Group Label>
T

$$$$
>  <Mutation Annotation>
A36V

>  <Group Label>
T

$$$$

Q) Determine whether measured abundance fitness meets or exceeds -0.2 for Y16W
A) F

Q) And what about the variant C64R ?
A) F

Q) And what about the variant A42T ?
A) T

Q) And what about the variant V74F ?
A) T

Q) And what about the variant A66E ?
A) T

Q) And what about the variant E72A ?
A) T

Q) And what about the variant A36C ?
A) T

Q) And what about the variant Y58C ?
A) T

Q) And what about the variant F27I ?
A) F

Q) And what about the variant P47W ?
A) F
